Measured Parameter: melting point

[[record]]
molecule = "Cn1cc(C(C)(CNC(=O)c2nnc(-c3ccc(F)cc3F)s2)c2cccc(C(F)(F)F)n2)cn1 (centres unmarked)"
readout_value = "162 to 163 °C"

[[record]]
molecule = "Cn1cc(C(C)(CNC(=O)c2cc(-c3cccn3C)on2)c2cccc(Cl)n2)cn1 (centres unmarked)"
readout_value = "111 to 113 °C"

[[record]]
molecule = "Cn1cc(C(C)(CNC(=O)c2cc(-c3ccc(F)cc3F)on2)c2cccc(C(F)(F)F)n2)cn1 (centres unmarked)"
readout_value = "160 to 165 °C"

[[record]]
molecule = "Cn1cc(C(C)(CNC(=O)c2cc(-c3ccc(F)cc3F)no2)c2cccc(Cl)n2)cn1 (centres unmarked)"
readout_value = "126 to 128 °C"

[[record]]
molecule = "Cn1cc(C(C)(CNC(=O)c2cc(-c3ccc(F)cc3F)on2)c2cc(C#N)ccn2)cn1 (centres unmarked)"
readout_value = "156 to 158 °C"

[[record]]
molecule = "COc1cc(Cl)nc(C(C)(CNC(=O)c2cc(-c3ccc(F)cc3F)on2)c2cnn(C)c2)c1 (centres unmarked)"
readout_value = "157 to 159 °C"

[[record]]
molecule = "COc1cnc(Cl)nc1C(C)(CNC(=O)c1cc(-c2ccc(F)cc2F)on1)c1cnn(C)c1 (centres unmarked)"
readout_value = "145 to 151 °C"

[[record]]
molecule = "COc1ccc(C(C)(CNC(=O)c2cc(-c3ccc(F)cc3F)on2)c2cnn(C)c2)nc1Cl (centres unmarked)"
readout_value = "196 to 199 °C"

[[record]]
molecule = "CO/N=C(\\C)c1ccnc(C(C)(CNC(=O)c2cc(-c3ccc(F)cc3F)on2)c2cnn(C)c2)c1 (centres unmarked)"
readout_value = "88 to 90 °C"

[[record]]
molecule = "Cn1cc(C(C)(CNC(=O)c2nnc(-c3ccc(F)cc3F)s2)c2cccc(C#N)n2)cn1 (centres unmarked)"
readout_value = "169 to 170 °C"

[[record]]
molecule = "Cc1cc(-c2cc(C(=O)NCC(C)(c3cnn(C)c3)c3cccc(Cl)n3)no2)n(C)n1 (centres unmarked)"
readout_value = "182 to 184 °C"

[[record]]
molecule = "Cn1ncc(C(CNC(=O)c2nnc(-c3ccc(F)cc3F)s2)c2cccc(Cl)n2)c1Cl (centres unmarked)"
readout_value = "150 to 151 °C"

[[record]]
molecule = "Cn1ncc(C(CNC(=O)c2cc(-c3ccc(F)cc3F)on2)c2cccc(Cl)n2)c1Cl (centres unmarked)"
readout_value = "113 to 115 °C"

[[record]]
molecule = "Cn1cc(C(C)(CNC(=O)c2cc(-c3ccc(F)cc3F)on2)c2cccc(Br)n2)cn1 (centres unmarked)"
readout_value = "141 to 143 °C"

